Measured pIC50, listed per entry for reference.
target: SceCet1 (Saccharomyces cerevisiae, UniProt O13297); construct: C-terminal catalytic domain (aa 241 to 539) of S. cerevisiae RTPase (SceCet1); made in house; host or cells: Escherichia coli; assay: TLC assay for 32Pi release from [γ-32P]ATP, SceCet1; type: biochemical; details: 25 nM SceCet1, 30°C; read-out: IC50 SceCet1
Sequence (O13297 241-539): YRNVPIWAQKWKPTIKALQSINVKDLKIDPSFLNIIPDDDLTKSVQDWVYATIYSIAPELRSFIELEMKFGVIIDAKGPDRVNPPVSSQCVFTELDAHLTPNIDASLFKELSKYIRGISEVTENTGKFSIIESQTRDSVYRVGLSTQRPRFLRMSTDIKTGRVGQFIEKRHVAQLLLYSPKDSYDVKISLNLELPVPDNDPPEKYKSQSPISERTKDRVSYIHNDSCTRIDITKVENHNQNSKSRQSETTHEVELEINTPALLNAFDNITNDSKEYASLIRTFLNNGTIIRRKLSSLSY
pIC50: −log10 of the molar value.

A selection of reference data follows.
Request: Reported pIC50, compound O=C(C=Cc1ccccc1)OC1C=C(C(=O)O)CC(OC(=O)C=Cc2ccccc2)C1OC(=O)C=Cc1ccccc1 (stereo not shown) : ____
Response: < 3.30

Request: How about this compound: COc1cc(/C=C/C(=O)O[C@@H]2C[C@](O)(C(=O)O)C[C@@H](O)[C@H]2O)ccc1O
Response: < 3.30

Request: How about this compound: O=C(/C=C/c1ccc(O)c(O)c1)OC1[C@H](OC(=O)/C=C/c2ccc(O)c(O)c2)CC(O)(C(=O)O)C[C@H]1OC(=O)/C=C/c1ccc(O)c(O)c1 (stereo in doubt)
Response: 5.00

Request: How about this compound: O=C(/C=C/c1ccc(O)c(O)c1)O[C@@H]1C[C@](OC(=O)/C=C/c2ccc(O)c(O)c2)(C(=O)O)C[C@@H](O)[C@H]1O
Response: < 3.30

Request: How about this compound: O=C(/C=C/c1ccc(O)cc1)OC1[C@H](O)CC(O)(C(=O)O)C[C@H]1O (stereo partly shown)
Response: < 3.30

Request: How about this compound: COc1ccc(/C=C/C(=O)O[C@@H]2C[C@@](O)(C(=O)O)C[C@@H](O)[C@@H]2O)cc1O
Response: < 3.30

Here's the next entry for you.
Request: Reported pIC50, compound O=C(/C=C/c1ccc(O)c(O)c1)O[C@@H]1C[C@](OC(=O)/C=C/c2ccc(O)c(O)c2)(C(=O)O)C[C@@H](OC(=O)/C=C/c2ccc(O)c(O)c2)[C@H]1O : ____
Response: 4.54

====

test system: CthTTM; assay: TLC assay for 32Pi release from [γ-32P]ATP, CthTTM; type: biochemical, Clostridium thermocellum; conditions: 500 nM CthTTM, 37°C
assay endpoint: IC50 (µM)
Number in µM, nothing else.

Request: Reported IC50, compound O=C(C=Cc1ccccc1)OC1C=C(C(=O)O)CC(OC(=O)C=Cc2ccccc2)C1OC(=O)C=Cc1ccccc1 (stereo not shown) : ____
Response: 150

====

molecular target: MimiCE (Acanthamoeba polyphaga mimivirus, UniProt Q5UQX1); construct: the N-terminal RTPase domain (amino acids [aa] 1 to 237) of mimivirus capping enzyme (MimiCE); HisSmt3 (N, cleaved yes); made in house; host or cells: Escherichia coli; test: biochemical; format: biochemical; details: 7 nM MimiCE, 37°C; read-out: IC50 MimiCE
Sequence (Q5UQX1 1-237): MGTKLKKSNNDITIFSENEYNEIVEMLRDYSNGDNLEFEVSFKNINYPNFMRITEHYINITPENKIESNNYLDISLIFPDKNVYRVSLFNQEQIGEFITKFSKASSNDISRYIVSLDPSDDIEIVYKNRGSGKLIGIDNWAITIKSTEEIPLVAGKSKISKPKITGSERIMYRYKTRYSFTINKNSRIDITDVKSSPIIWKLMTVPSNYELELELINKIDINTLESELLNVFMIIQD
assay endpoint: pIC50
By convention, pIC50 is the negative base-10 log of a molar concentration.

A selection of reference data follows.
Request: Reported pIC50, molecule O=C(C=Cc1ccccc1)OC1C=C(C(=O)O)CC(OC(=O)C=Cc2ccccc2)C1OC(=O)C=Cc1ccccc1 (stereo not drawn) : ____
Response: 4.72

Request: How about this molecule: Oc1cc(O)c2c(c1)O[C@H](c1ccc(O)c(O)c1)[C@H](O)C2 [Compound 4C, epicatechin]
Response: 5.00

Here's the next entry for you.
Request: Reported pIC50, molecule O=C(O)C1OC(Oc2c(-c3ccc(O)c(O)c3)oc3cc(O)cc(O)c3c2=O)C(O)C(O)C1O (stereo not drawn) : ____
Response: 4.72

====

Molecular target: CthTTM (Acetivibrio thermocellus, UniProt A3DIJ8)
Sequence (A3DIJ8 1-156): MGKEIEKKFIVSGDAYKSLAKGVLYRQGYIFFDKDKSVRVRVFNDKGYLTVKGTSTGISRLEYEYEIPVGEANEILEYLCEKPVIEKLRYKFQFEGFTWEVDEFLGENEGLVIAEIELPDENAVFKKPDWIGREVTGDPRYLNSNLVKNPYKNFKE
Experiment: TLC assay for 32Pi release from [γ-32P]ATP, CthTTM
Type: biochemical, Clostridium thermocellum
Settings: ratio in parentheses
Measured IC50/IC50 TbCet1, CthTTM, listed per entry for reference.
# answer = number (no unit)

A selection of reference data follows.
Request: Reported IC50/IC50 TbCet1, CthTTM, molecule CC(=O)O[C@@]12C[C@@H](OC(=O)/C=C/c3ccc(O)c(O)c3)[C@@H](OC(=O)/C=C/c3ccc(O)c(O)c3)[C@@H](C1)OC2=O [Compound 6C, 1-acetyl,4,5-dicaffeoylquinide] : ____
Response: 13

Request: How about this molecule: Oc1cc(O)c2c(c1)O[C@H](c1ccc(O)c(O)c1)[C@H](O)C2 [Compound 4C, epicatechin]
Response: 104

Request: How about this molecule: O=C(/C=C/c1ccc(O)c(O)c1)O[C@@H]1C[C@](OC(=O)/C=C/c2ccc(O)c(O)c2)(C(=O)O)C[C@@H](OC(=O)/C=C/c2ccc(O)c(O)c2)[C@H]1O
Response: 174

---
Request: Reported IC50/IC50 TbCet1, CthTTM, molecule O=C(Oc1cc(C(=O)O[C@@H]2C[C@@](O)(C(=O)O)C[C@@H](OC(=O)c3cc(O)c(O)c(O)c3)[C@@H]2O)cc(O)c1O)c1cc(O)c(O)c(O)c1 : ____
Response: 95

Request: How about this molecule: O=C(OC1[C@H](OC(=O)c2ccccc2)CC(OC(=O)c2ccccc2)(C(=O)O)C[C@H]1OC(=O)c1ccccc1)c1ccccc1 (some centres unmarked)
Response: 12

Request: How about this molecule: O=C(O)C1OC(Oc2c(-c3ccc(O)c(O)c3)oc3cc(O)cc(O)c3c2=O)C(O)C(O)C1O (centres unmarked)
Response: 133

Request: How about this molecule: O=C(/C=C/c1ccc(O)c(O)c1)O[C@@H]1[C@H](OC(=O)/C=C/c2ccc(O)c(O)c2)C[C@]2(OC(=O)/C=C/c3ccc(O)c(O)c3)C[C@H]1OC2=O [Compound 6A, 1,4,5-tricaffeoylquinide]
Response: 53

====

target: MimiCE (Acanthamoeba polyphaga mimivirus); construct: the N-terminal RTPase domain (amino acids [aa] 1 to 237) of mimivirus capping enzyme (MimiCE); HisSmt3 (N, cleaved yes); made in house; host or cells: Escherichia coli; assay: biochemical; assay type: biochemical; details: ratio in parentheses;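 further: mimivirus capping enzyme triphosphatase ATPase reaction, radiolabeled ATP hydrolysis to Pi quantified by TLC after 10 min, normalized to no-inhibitor control with 5% DMSO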
assay endpoint: IC50/IC50 TbCet1, MimiCE
# answer = number (no unit)

A selection of reference data follows.
Request: Reported IC50/IC50 TbCet1, MimiCE, compound O=C(C=Cc1ccccc1)OC1C=C(C(=O)O)CC(OC(=O)C=Cc2ccccc2)C1OC(=O)C=Cc1ccccc1 (stereo not drawn) [Compound 6B, 3,4,5-tricinnamoylshikimic acid] : ____
Response: 13

Request: How about this compound: O=C(OC1[C@H](OC(=O)c2ccccc2)CC(OC(=O)c2ccccc2)(C(=O)O)C[C@H]1OC(=O)c1ccccc1)c1ccccc1 (stereo partly drawn) [Compound 1K]
Response: 3

Here's the next entry for you.
Request: Reported IC50/IC50 TbCet1, MimiCE, compound O=C(/C=C/c1ccc(O)c(O)c1)O[C@@H]1C[C@](OC(=O)/C=C/c2ccc(O)c(O)c2)(C(=O)O)C[C@@H](OC(=O)/C=C/c2ccc(O)c(O)c2)[C@H]1O [Compound 1E, 1,3,5-tricaffeoylquinic acid] : ____
Response: 44

====

molecular target: SceCet1 (Saccharomyces cerevisiae, UniProt O13297); construct: C-terminal catalytic domain (aa 241 to 539) of S. cerevisiae RTPase (SceCet1); made in house; host or cells: Escherichia coli; experiment: TLC assay for 32Pi release from [γ-32P]ATP, SceCet1; assay type: biochemical
Measured IC50, listed per entry for reference.

A selection of reference data follows.
Request: Reported IC50, compound O=C(OC1[C@H](OC(=O)c2ccccc2)CC(OC(=O)c2ccccc2)(C(=O)O)C[C@H]1OC(=O)c1ccccc1)c1ccccc1 (stereo partly drawn) : ____
Response: > 500 µM

Request: How about this compound: O=C(/C=C/c1ccc(O)cc1)O[C@@H]1CC(O)(C(=O)O)C[C@@H](OC(=O)/C=C/c2ccc(O)cc2)C1O (stereo partly drawn)
Response: > 500 µM

---
Request: Reported IC50, compound O=C(O)/C=C/c1ccc(O)c(O)c1 : ____
Response: > 500 µM

====

biological target: Lef4 (Autographa californica nuclear polyhedrosis virus, UniProt P41477); construct: the N-terminal RTPase domain (aa 1 to 236) of AcNPV Lef4 capping enzyme; HisSmt3 (N, cleaved yes); made in house; host or cells: Escherichia coli; experiment: TLC assay for 32Pi release from [γ-32P]ATP, Lef4; type: biochemical, Autographa californica nucleopolyhedrovirus (AcNPV); conditions: ratio in parentheses;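 further: Lef4 RNA triphosphatase cleaving radiolabelled ATP over 10 min at 37°C, hydrolysis set relative to inhibitor-free 5% DMSO controls, comparisons made against TbCet1 tested the same way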
Sequence (P41477 1-236): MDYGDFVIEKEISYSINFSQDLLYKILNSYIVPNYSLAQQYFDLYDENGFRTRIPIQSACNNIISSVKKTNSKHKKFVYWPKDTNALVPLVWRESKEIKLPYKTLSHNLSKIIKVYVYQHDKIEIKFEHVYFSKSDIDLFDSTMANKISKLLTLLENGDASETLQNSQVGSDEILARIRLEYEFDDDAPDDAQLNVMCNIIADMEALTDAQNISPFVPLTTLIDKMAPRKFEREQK
assay endpoint: IC50/IC50 TbCet1, Lef4
# answer = number (no unit)

Request: Reported IC50/IC50 TbCet1, Lef4, compound O=C(O)C1OC(Oc2c(-c3ccc(O)c(O)c3)oc3cc(O)cc(O)c3c2=O)C(O)C(O)C1O (centres unmarked) : ____
Response: 161

Request: How about this compound: O=C(OC1[C@H](OC(=O)c2ccccc2)CC(OC(=O)c2ccccc2)(C(=O)O)C[C@H]1OC(=O)c1ccccc1)c1ccccc1 (some centres unmarked)
Response: 8

Request: How about this compound: O=C(/C=C/c1ccc(O)c(O)c1)O[C@@H]1C[C@](OC(=O)/C=C/c2ccc(O)c(O)c2)(C(=O)O)C[C@@H](OC(=O)/C=C/c2ccc(O)c(O)c2)[C@H]1OC(=O)/C=C/c1ccc(O)c(O)c1
Response: 438

Request: How about this compound: O=C(Oc1cc(C(=O)O[C@@H]2C[C@@](O)(C(=O)O)C[C@@H](O)[C@@H]2O)cc(O)c1O)c1cc(O)c(O)c(O)c1
Response: 682

Request: How about this compound: CC(=O)O[C@@]12C[C@@H](OC(=O)/C=C/c3ccc(O)c(O)c3)[C@@H](OC(=O)/C=C/c3ccc(O)c(O)c3)[C@@H](C1)OC2=O [Compound 6C, 1-acetyl,4,5-dicaffeoylquinide]
Response: 6

Request: How about this compound: O=C(/C=C/c1ccc(O)c(O)c1)O[C@@H]1[C@H](OC(=O)/C=C/c2ccc(O)c(O)c2)C[C@]2(OC(=O)/C=C/c3ccc(O)c(O)c3)C[C@H]1OC2=O [Compound 6A, 1,4,5-tricaffeoylquinide]
Response: 22

Request: How about this compound: O=C(CCO)c1ccc(O)cc1
Response: 250
